system: SK-MEL-28 melanoma; assay: NCI tumour cell line growth inhibition, 48 h; in the data active means GI50 below about 0.43 µM; inactive means the rest
Possible outcomes: active, inactive

COMPOUND: CCCCCOC(=O)Nc1nc(=O)n(C2OC(C)C(O)C2O)cc1F (configuration not stated)
TARGET_OF_ASSAY: SK-MEL-28 melanoma
CAT: inactive

COMPOUND: C=C(C(=O)c1ccccc1)C(NC(C)(C)C)c1ccccc1 (configuration not stated)
TARGET_OF_ASSAY: SK-MEL-28 melanoma
CAT: inactive

COMPOUND: CC1(C)CC[C@]23CC[C@]4(C)[C@H](CC[C@@H]5[C@@]6(C)CCCNC(C)(C)[C@@H]6CC[C@]54C)[C@H]2[C@H]1OC3
TARGET_OF_ASSAY: SK-MEL-28 melanoma
CAT: inactive

COMPOUND: O=C1NC(=Nc2ccc(O)cc2)S/C1=C\c1cccs1
TARGET_OF_ASSAY: SK-MEL-28 melanoma
CAT: inactive

COMPOUND: Clc1nc(Cl)c2ncn(-c3ccccc3)c2n1
TARGET_OF_ASSAY: SK-MEL-28 melanoma
CAT: inactive

COMPOUND: COc1ccc(C2=C(c3ccccc3)C(=O)N3CCCC3C2)cc1 (configuration not stated)
TARGET_OF_ASSAY: SK-MEL-28 melanoma
CAT: inactive

COMPOUND: COc1ccccc1CNCCCN1C(=O)c2ccc3c4c(ccc(c24)C1=O)C(=O)N(CCCNCCCCNCCCN)C3=O
TARGET_OF_ASSAY: SK-MEL-28 melanoma
CAT: active

COMPOUND: Cc1[nH]c(C(=O)Nc2cccc(OC3CCNCC3)c2)c(Cl)c1Cl
TARGET_OF_ASSAY: SK-MEL-28 melanoma
CAT: inactive

COMPOUND: CCCCCCCCCCCCC(O)C1CCC(C(O)CCCCC(O)CCCCCC2CC(CC(C)=O)C(=O)O2)O1 (configuration not stated)
TARGET_OF_ASSAY: SK-MEL-28 melanoma
CAT: inactive

COMPOUND: CCN1C(=O)/C(=c2\sc3n(c2=O)C2C(NN=3)N(CC)C(=O)N2CC)c2ccccc21 (configuration not stated)
TARGET_OF_ASSAY: SK-MEL-28 melanoma
CAT: inactive

COMPOUND: CC(C)C[C@H](NC(=O)[C@@H](Cc1ccccc1)n1ccc(Nc2ccccc2)cc1=O)B(O)O
TARGET_OF_ASSAY: SK-MEL-28 melanoma
CAT: active

COMPOUND: CC(C)[C@@]12C[C@@H](OC(=O)COC(=O)c3ccccc3)[C@@](C)(O1)[C@@H]1CC[C@@H](C)[C@H]1[C@@H]2OC(=O)/C=C/c1ccccc1
TARGET_OF_ASSAY: SK-MEL-28 melanoma
CAT: inactive

====

system: UO-31 renal; test: NCI tumour cell line growth inhibition, 48 h; in the data active means GI50 below about 0.43 µM; inactive means the rest
Possible outcomes: active, inactive

COMPOUND: Nc1c(C(=O)Nc2cccc(Cl)c2)sc2nc3c(cc12)C(O)CCC3 (centres undefined)
TARGET_OF_ASSAY: UO-31 renal
CAT: inactive
//
COMPOUND: C[n+]1cccc(NC(=O)c2ccc3ccc4ccc(C(=O)Nc5ccc[n+](C)c5)nc4c3n2)c1
TARGET_OF_ASSAY: UO-31 renal
CAT: inactive
//
COMPOUND: CCOC(=O)C1=C(C)NC2SC(=O)/C(=C\c3cccc(Cl)c3)N2C1c1ccccc1 (centres undefined)
TARGET_OF_ASSAY: UO-31 renal
CAT: inactive
//
COMPOUND: COc1ccc(OC)c(C2=C(c3cn(C)c4ccccc34)C(=O)NC2=O)c1
TARGET_OF_ASSAY: UO-31 renal
CAT: inactive
//
COMPOUND: CCN1CCN(Cc2ccc(Nc3ncc(F)c(-c4cc(F)c5nc(C)n(C(C)C)c5c4)n3)nc2)CC1
TARGET_OF_ASSAY: UO-31 renal
CAT: active
//
COMPOUND: COc1cc(/C=C2\CCC/C(=C\c3cc(CN4CCCC4)c(O)c(OC)c3)C2=O)cc(CN2CCCC2)c1O
TARGET_OF_ASSAY: UO-31 renal
CAT: inactive
//
COMPOUND: Cc1ccc2ncnc(N(C)C3CCCCC3)c2c1
TARGET_OF_ASSAY: UO-31 renal
CAT: inactive
//
COMPOUND: CS(=O)(=O)N1CCC(Nc2ncc(C(=O)c3c(F)cccc3F)c(N)n2)CC1
TARGET_OF_ASSAY: UO-31 renal
CAT: inactive
//
COMPOUND: CC(C)C[C@H](NC(=O)[C@@H](Cc1ccccc1)n1ccc(Nc2ccccc2)cc1=O)B(O)O
TARGET_OF_ASSAY: UO-31 renal
CAT: inactive

====

test system: LOX IMVI melanoma; assay: NCI tumour cell line growth inhibition, 48 h
Listed here are compounds together with their documented TGI.

COMPOUND: Cc1cn(C2CC(O)C(Cn3nncc3Cn3cnc4c(N)ncnc43)O2)c(=O)[nH]c1=O (configuration not stated)
TGI: > 100 µM
--
COMPOUND: CC(C)n1cc(-c2ccc3c(c2)N(C)CC3)c2c(NS(=O)(=O)c3ccn(C)n3)ccnc21
TGI: > 100 µM
--
COMPOUND: CCCCCCCCCN=C(N)c1ccc(N2CCN(c3ccc(C(N)=NCCCCCCCCC)cc3)CC2)cc1
TGI: 10.7 µM
--
COMPOUND: COc1ccc2nc3cccc([N+](=O)[O-])c3c(NCCC(=O)O)c2c1
TGI: > 10 µM
--
COMPOUND: C#CN1C(=O)c2c(c(-c3ccccc3)c(-c3ccc(Oc4ccc(-c5c(-c6ccccc6)c6c(c(-c7ccccc7)c5-c5ccccc5)C(=O)N(C#C)C6=O)cc4)cc3)c(-c3ccccc3)c2-c2ccccc2)C1=O
TGI: > 100 µM
--
COMPOUND: O=C(Cc1cc(O)ccc1O)NO
TGI: 80.9 µM
--
COMPOUND: CCOC(=O)N1c2ccccc2N(C(=O)OCC)C1CC(=O)/C=C/c1ccccc1
TGI: 7.06 µM

====

tested on: MALME-3M melanoma; test: NCI tumour cell line growth inhibition, 48 h
TGI of 30 µM or higher: criterion met. Under 30 µM: criterion not met.

COMPOUND: Nc1ccc(Oc2ccc(C34CC5C6CC7(c8ccc(Oc9ccc(N)cc9)cc8)CC5C(C3)C(C7)C6C4)cc2)cc1
CAT: criterion met
//
COMPOUND: COc1ccc(C2=C(c3ccccc3)C(=O)N3CCCC3C2)cc1 (stereo unspecified)
CAT: criterion met
//
COMPOUND: OC1C2CCCCN2C[C@@H](O)[C@H]1O (stereo partly specified)
CAT: criterion met
//
COMPOUND: c1cc[n+](Cc2c3ccccc3cc3c2ccc2ccccc23)cc1
CAT: criterion not met
//
COMPOUND: O=C1C(Cl)C(c2ccc(O)cc2)N1n1cnc2ccccc2c1=O (stereo unspecified)
CAT: criterion met
//
COMPOUND: O=C(Cc1cc(O)ccc1O)NO
CAT: criterion met
//
COMPOUND: CC[C@]12C=CCN3CC[C@@]4(c5ccc(OC)cc5N(C)[C@H]4[C@@](O)(C(=O)OC)[C@@H]1OC(=O)CCC(=O)O[C@H]1CC[C@H]4[C@@H]5CCC6=CC(=O)CC[C@@H]6[C@H]5CC[C@]14C)[C@@H]32
CAT: criterion not met
//
COMPOUND: CN(C)CCC(=O)[C@@]1(O)CC[C@H]2[C@@H]3CC=C4C[C@@H](O)CC[C@]4(C)[C@H]3CC[C@@]21C
CAT: criterion not met
//
COMPOUND: Cc1cn(CC(=S)NCCc2c[nH]c3ccccc23)c(=O)[nH]c1=O
CAT: criterion met
//
COMPOUND: COC(=O)[C@]12CC[C@H]3CN(S(=O)(=O)c4ccc(C)cc4)[C@H]([C@H]31)[C@H](c1ccco1)N2S(=O)(=O)c1ccc(C)cc1
CAT: criterion met
//
COMPOUND: Nc1c(C(=O)Nc2cccc(Cl)c2)sc2nc3c(cc12)C(O)CCC3 (stereo unspecified)
CAT: criterion met
//
COMPOUND: CC/C(Cl)=N\OC(=O)Nc1ccc(F)c(Cl)c1
CAT: criterion not met
//
COMPOUND: N#Cc1c(-c2ccccc2)cn(C(=O)c2ccccc2)c1N
CAT: criterion met
//
COMPOUND: O=C(c1ccccc1)c1ccc(N2C(=O)/C(=C/c3cccc(Oc4ccccc4)c3)N=C2c2ccccc2)c(N2C(=O)/C(=C/c3cccc(Oc4ccccc4)c3)N=C2c2ccccc2)c1
CAT: criterion met
//
COMPOUND: CC(=O)OC(C(=O)[O][Ge]([CH3])([CH3])[CH3])c1ccccc1 (stereo unspecified)
CAT: criterion met
//
COMPOUND: COC(=O)CN1Cc2cc(C)cc(c2O)CN(CC(=O)OC)Cc2cc(C)cc(c2O)CN(CC(=O)OC)Cc2cc(C)cc(c2O)CN(CC(=O)OC)Cc2cc(C)cc(c2O)C1
CAT: criterion met
//
COMPOUND: O=C1CCC(=O)c2ccccc2N1
CAT: criterion met
//
COMPOUND: CSC12c3cc(C)n(-c4ccc(I)cc4)c3CC(C)(C)CN1C(=O)C2Oc1ccccc1 (stereo unspecified)
CAT: criterion met
//
COMPOUND: O=S(=O)(O)c1c(Cl)c(Cl)c(O)c2ncccc12
CAT: criterion met
//
COMPOUND: CCOC(=O)/C(=C\c1c[nH]c2ccccc12)P(=O)(OCC)OCC
CAT: criterion met
//
COMPOUND: O=c1[nH][nH]c(=O)n1Cc1ccccc1
CAT: criterion met
//
COMPOUND: COC(C)=NCCC1=CCCCC1
CAT: criterion met
//
COMPOUND: COC1(OC)CCN(Cc2ccccc2)C1=O
CAT: criterion met
//
COMPOUND: COc1cc2c(Nc3ccc(-c4ccc(N)cc4)cc3)ncnc2c(OC)c1OC
CAT: criterion met
//
COMPOUND: Cc1nc(C)c(N2CCN(Cc3ccccc3)CC2)c(=O)[nH]1
CAT: criterion met
//
COMPOUND: Cc1ccc(NC(=S)NNC(=S)Nc2ccc(C)cc2)cc1
CAT: criterion met
//
COMPOUND: N#CCCC1(CCC#N)S(=O)(=O)OCCOS1(=O)=O
CAT: criterion met
//
COMPOUND: [O-]c1c2c(nn1-c1ccc(F)cc1)c1ccccc1c[n+]2Cc1ccccc1
CAT: criterion not met
//
COMPOUND: COc1cc2cc(C(=O)N3CC(CCl)c4ccc(NO)cc43)[nH]c2c(OC)c1OC (stereo unspecified)
CAT: criterion not met
//
COMPOUND: COc1ccc(OC(=O)N2C/C(=C\c3ccccc3)C(=O)/C(=C/c3ccccc3)C2)cc1
CAT: criterion not met
//
COMPOUND: COc1cccc(CCn2c(N)c(-c3cc(Cl)cc(Cl)c3)c3ccc([N+](=O)[O-])cc3c2=O)c1
CAT: criterion met
//
COMPOUND: CCCCCc1cc(/C=C2/N=C(c3ccc[nH]3)C=C2OC)[nH]c1C
CAT: criterion not met
//
COMPOUND: CNC(=O)O/N=C1\N(C)CN(c2ccccc2)C12CCN(CCCC(=O)c1ccc(F)cc1)CC2
CAT: criterion met
//
COMPOUND: CC(=O)[O-].CC(=O)[O-].O=C([CH-]C(=O)c1ccccc1)c1ccccc1.[Nd+3].[OH3+]
CAT: criterion met
//
COMPOUND: Cn1cc(-c2csc(-c3ccccc3)n2)c2cccnc21
CAT: criterion met
//
COMPOUND: CC1CC(C)(O)C2C3(C)CCCC2(COC3=O)C12CCC1(CCOC1=O)O2 (stereo unspecified)
CAT: criterion met
//
COMPOUND: c1ccc2c(c1)nc1ccccn12
CAT: criterion met
//
COMPOUND: C=C(C(=O)c1ccccc1)C(NC(C)(C)C)c1ccccc1 (stereo unspecified)
CAT: criterion not met
//
COMPOUND: CCOC(=O)c1c(C)n([O-])c2cc(F)c(F)cc2[n+]1=O
CAT: criterion not met
